assay: Solubility in methanol/water; assay type: physicochemical; conditions: 2/1 (v/v) methanol/water, 0 °C, organic solvent or mixture, thermodynamic from solid, 2/1 (v/v) methanol/water at 0C
measured.quantity: solubility (µg/mL)
Field format: number, assumed µg/mL, no unit text.

State the recorded solubility for this entry: CC(OC1OCCN(Cc2n[nH]c(=O)[nH]2)[C@H]1c1ccc(F)cc1)c1cc(C(F)(F)F)cc(C(F)(F)F)c1 (stereo partly shown) [Form II] 1300

---

assay: Solubility in methanol/water; assay type: physicochemical; details: 2/1 (v/v) methanol/water, 0 °C, organic solvent or mixture, thermodynamic from solid, 2/1 (v/v) methanol/water at 0° C.
measured.quantity: solubility (µg/mL)
Field format: number, assumed µg/mL, no unit text.

State the recorded solubility for this entry: CC(OC1OCCN(Cc2n[nH]c(=O)[nH]2)[C@H]1c1ccc(F)cc1)c1cc(C(F)(F)F)cc(C(F)(F)F)c1 (stereo partly shown) [Form I] 900

FYI, the data here is from patent US6432953B1.
